Target: T1, WPPPPRVPR peptide
T1 chain: WPPPPRVPR
Experiment: ITC
Listed below: pKd values for each entry.
// pKd here means minus log10 of the molar concentration (mol/L)

-- ask Item LKKTAVKTVWVEGLSEDGFTYYYNTETGESRWEKPDDFIP [FBP21 WW2 WW2] has what recorded pKd?
-- reply 4.06

As a next step, examine the binder that follows.
-- ask Item RKKDPSKGRWVEGITSEGYHYYYDLISGASQWEKPEGFQG [FBP21 WW1 WW1] has what recorded pKd?
-- reply 3.81
